Tested on: rheumatoid arthritis model, DBA-1J Mice [류마티스 관절염 모델]
Experiment: Arthritis score in rheumatoid arthritis animal model, dose regimen study, Experiment 6
Assay type: in vivo, mouse
Conditions: Day 9; MTX 2 mg/kg/2day PO, HCQ 80 mg/kg/day QD PO, PG 25 mg/kg/day QD PO, TFC 10 mg/kg/day BID PO (G3-G6)
# Arthritis score annotations
QUANTITY_MEASURED: Arthritis score (total score)

C[C@@H]1CCN(C(=O)CC#N)C[C@@H]1N(C)c1ncnc2[nH]ccc12 [토파시티닙] ... 9.0
CCN(CCO)CCCC(C)Nc1ccnc2cc(Cl)ccc12 (stereo not shown) [히드록시클로로퀸, Hydroxychloroquine] ... 10.3
CN(Cc1cnc2nc(N)nc(N)c2n1)c1ccc(C(=O)N[C@@H](CCC(=O)O)C(=O)O)cc1 [메토트렉세이트, Methotrexate] ... 6.3
[H]/N=C(\N/C(=N/[H])Nc1ccc(Cl)cc1)NC(C)C [프로구아닐] ... 9.5
